The compounds listed here are annotated with their metabolised at 0.25 h.
Assay: Metabolic stability in rat liver microsomes
Type: in vitro ADME
Conditions: pH 7.4, 37 °C, NADPH, fraction of test compound eliminated after 15 minutes, read-out: turnover at 15 minutes

Some solved cases for reference:
chemical_string=CCN1CCC(c2cccc(S(C)(=O)=O)c2F)CC1 value_measured=1%
chemical_string=CCCN1CCC(c2cccc(S(C)(=O)=O)c2C)CC1 value_measured=4%
chemical_string=CCCN1CCC(c2cccc(C(F)(F)F)c2C#N)CC1 value_measured=22%
chemical_string=CCCN1CCC(c2cccc(S(C)(=O)=O)c2F)CC1 value_measured=3%

Below: the item to evaluate.
Given item CCCN1CCC(c2cccc(C(F)(F)F)c2OC)CC1 , the value recorded as its metabolised at 0.25 h is 49%
